target: intestinal alkaline phosphatase (Alpi), Mus musculus; assay: activators of mouse IAP enzyme, SAR follow-up, biochemical, luminescence (AID 493146); details: purified mouse IAP, luminescent substrate, activation
Activity calls are given as the source filed them. No rule for the calls is given here.
Just give me one of these, please: active, inactive

// known answers, use as guide
INSERT INTO measurements (compound, target_system, class_label) VALUES
  ('COc1ccc(Cl)cc1NC(=O)CSc1sc2c(O)cc(=O)[nH]c2c1C#N', 'intestinal alkaline phosphatase (Alpi), Mus musculus', 'inactive'),
  ('O=C(CCCN1C(=O)/C(=C\c2ccco2)SC1=S)Nc1ccc(O)cc1C(=O)O', 'intestinal alkaline phosphatase (Alpi), Mus musculus', 'inactive'),
  ('O=C(CN1C(=O)/C(=C/c2ccco2)SC1=S)NC1C=CS(=O)(=O)C1 (configuration not stated)', 'intestinal alkaline phosphatase (Alpi), Mus musculus', 'inactive'),
  ('Cc1ccc(/C=C2\SC(=S)N(C3CCS(=O)(=O)C3)C2=O)o1 (configuration not stated)', 'intestinal alkaline phosphatase (Alpi), Mus musculus', 'inactive'),
  ('O=C(NNC(=O)c1cc(O)c(O)c(O)c1)NC1CCCCC1', 'intestinal alkaline phosphatase (Alpi), Mus musculus', 'inactive');

query: Returns: the outcome recorded for O=C(N/N=C/c1ccccc1F)c1cc(O)c(O)c(O)c1 in this assay.
result: inactive

query: Returns: the outcome recorded for CCSc1nnc(NC(=O)CSc2sc3c(O)cc(=O)[nH]c3c2C#N)s1 in this assay.
result: inactive

----------
molecular target: intestinal alkaline phosphatase (Alpi), Mus musculus; assay: activators of mouse IAP enzyme, SAR follow-up, biochemical, luminescence (AID 493146); details: purified mouse IAP, luminescent substrate, activation
Activity calls are given as the source filed them. The rule behind the calls is not given here.
Just give me one of these, please: active, inactive

query: Returns: the outcome recorded for COc1ccc(OC)c(NC(=O)CCNS(=O)(=O)c2ccc3[nH]c(=O)oc3c2)c1 in this assay.
result: inactive

----------
target: intestinal alkaline phosphatase (Alpi), Mus musculus; assay: activators of mouse IAP enzyme, SAR follow-up, biochemical, luminescence (AID 493146); conditions: purified mouse IAP, luminescent substrate, activation
Calls of active or inactive are those of the source. How the calls were made is not given here.
Just give me one of these, please: Y = active, N = inactive

INSERT INTO assay_data (molecule, class_label) VALUES
  ('Cc1ccc(NC(=O)CCNS(=O)(=O)c2ccc3[nH]c(=O)oc3c2)cc1', 'N');

query: Returns: the outcome recorded for O=C(CN1C(=O)/C(=C\c2ccco2)SC1=S)Nc1ccccc1C(=O)O in this assay.
result: N

query: Returns: the outcome recorded for COc1cccc(CNC(=O)CCNS(=O)(=O)c2ccc3[nH]c(=O)oc3c2)c1 in this assay.
result: N

query: Returns: the outcome recorded for O=C(CCNS(=O)(=O)c1ccc2[nH]c(=O)oc2c1)Nc1cccc(-c2ccno2)c1 in this assay.
result: N

query: Returns: the outcome recorded for O=C(N/N=C/C1CC2CCC1C2)c1cc(O)c(O)c(O)c1 (stereo not given) in this assay.
result: N

query: Returns: the outcome recorded for FC(F)(F)c1cccc(NC(=S)NCCC(c2ccccc2)c2ccccc2)c1 in this assay.
result: Y

query: Returns: the outcome recorded for O=C(NN=Cc1cccnc1)c1cc(O)c(O)c(O)c1 in this assay.
result: N

query: Returns: the outcome recorded for COc1cc([N+](=O)[O-])ccc1NC(=S)NCCC(c1ccccc1)c1ccccc1 in this assay.
result: N

query: Returns: the outcome recorded for CN1CCC(=NNC(=O)c2cc(O)c(O)c(O)c2)CC1 in this assay.
result: N

query: Returns: the outcome recorded for CC(C)NC(=O)CSc1sc2c(O)cc(=O)[nH]c2c1C#N in this assay.
result: N

query: Returns: the outcome recorded for COc1ccccc1NC(=O)CSc1sc2c(O)cc(=O)[nH]c2c1C#N in this assay.
result: N

All figures here come from PubChem BioAssay AID493146.
